Target entity: T1, human CD22, full length, on CHO-K1-human CD22 2C4 cells (human, UniProt P20273 20-847)
T1 construct: Full-length human CD22 (NCBI NP_001762.2) stably transfected into CHO-K1
T1 sequence: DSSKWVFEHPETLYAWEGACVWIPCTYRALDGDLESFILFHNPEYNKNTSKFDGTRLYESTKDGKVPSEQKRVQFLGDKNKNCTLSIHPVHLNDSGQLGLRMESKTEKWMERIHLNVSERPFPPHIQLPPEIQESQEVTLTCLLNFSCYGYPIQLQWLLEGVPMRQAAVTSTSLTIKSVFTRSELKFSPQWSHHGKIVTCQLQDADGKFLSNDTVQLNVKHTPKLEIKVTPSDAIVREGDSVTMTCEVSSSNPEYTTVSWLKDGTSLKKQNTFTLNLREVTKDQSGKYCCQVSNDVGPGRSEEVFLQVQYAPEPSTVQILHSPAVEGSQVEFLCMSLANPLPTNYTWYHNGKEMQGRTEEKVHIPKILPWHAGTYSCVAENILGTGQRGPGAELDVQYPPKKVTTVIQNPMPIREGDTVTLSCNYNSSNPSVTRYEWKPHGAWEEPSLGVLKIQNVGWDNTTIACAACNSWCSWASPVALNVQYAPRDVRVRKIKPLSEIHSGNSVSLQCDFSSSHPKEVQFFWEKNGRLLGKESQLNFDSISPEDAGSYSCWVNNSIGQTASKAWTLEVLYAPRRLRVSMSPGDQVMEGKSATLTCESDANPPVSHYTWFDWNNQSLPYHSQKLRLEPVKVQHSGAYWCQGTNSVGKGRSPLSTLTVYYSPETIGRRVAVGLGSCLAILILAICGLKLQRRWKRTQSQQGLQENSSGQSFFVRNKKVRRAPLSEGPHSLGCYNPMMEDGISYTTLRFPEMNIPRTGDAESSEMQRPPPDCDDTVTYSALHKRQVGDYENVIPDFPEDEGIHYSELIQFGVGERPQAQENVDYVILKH
Measurement description: FACS, CHO-K1-human CD22 2C4 cells
Kindly supply the reported Maximum mean fluorescence intensity values for the records listed here.
Give bare numbers, in MFI.

F1.231.15 human-murine chimeric antibody (antibody, human IgG1, V domains shown, Chimeric: murine V regions on human IgG1 heavy constant region and kappa light constant region) VH: QVQLQQPGAELVKPGASVKLSCKTSGYTFTIYWMQWVKQRPGRGLEWIGRIDPHSGDTHYNENFTTKVTLTVDETSNTAYMHLSGLTSEDSAVYYCARRDYSYYVLDYWGQGTSVTVSS VL: DVVLTQTPLSLPVSLGDQASISCRSSQSLVHINGDTYLHWYLQKPGQSPKLLIYTVFNRFSGVPDRFSGSGSGTDFTLKISRVEAEDLGAYFCSQSTHVPYTFGGGTKLEIKR
35400
F1.62.10 human-murine chimeric antibody (antibody, human IgG1, kappa, V domains shown, Chimeric, human IgG1 / kappa) VH: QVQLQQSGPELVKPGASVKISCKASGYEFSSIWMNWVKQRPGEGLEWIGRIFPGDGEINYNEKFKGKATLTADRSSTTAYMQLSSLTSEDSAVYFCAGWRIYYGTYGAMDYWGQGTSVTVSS VL: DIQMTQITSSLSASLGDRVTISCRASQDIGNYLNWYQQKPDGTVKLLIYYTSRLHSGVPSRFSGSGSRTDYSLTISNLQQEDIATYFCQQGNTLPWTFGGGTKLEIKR
29200
F1.17.1 human-murine chimeric antibody (antibody, human IgG1, kappa, V domains shown, Chimeric, human IgG1 / kappa) VH: QVQLKESGPGLVAPSQSLSITCTVSGFSLSRYTVHWVRQPPGKGLEWLGMIWGGGSTDYNSALKSRLSISKDNSKSQVFLKMNSLQTDDTAMYYCARPHDFDAGGFAYWGQGTLVTVSA VL: QIVLTQSPAILSTSPGEKVTMTCSASSRVNYMYWYQQKPGSSPRLLIYDTSNLASGVPVRFSGSGSGTSYSLTISRMEAEDAATYYCQQWTSYPLTFGAGTKLELKR
36900
F1.257.3 human-murine chimeric antibody (antibody, human IgG1, kappa, V domains shown, Chimeric, human IgG1 / kappa; VL tied by name) VH: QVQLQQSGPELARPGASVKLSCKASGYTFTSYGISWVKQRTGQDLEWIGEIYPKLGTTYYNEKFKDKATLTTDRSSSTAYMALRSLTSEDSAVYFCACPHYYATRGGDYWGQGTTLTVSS VL: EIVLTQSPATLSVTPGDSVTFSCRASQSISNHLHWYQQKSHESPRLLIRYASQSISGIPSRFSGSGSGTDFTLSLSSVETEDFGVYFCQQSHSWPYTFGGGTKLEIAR
46600

Consider the binder shown here: F1.216.2 human-murine chimeric antibody (antibody, human IgG1, kappa, V domains shown, Chimeric, human IgG1 / kappa) VH: QVQLQQSGPEVVRPGASVKISCKASGYAFSSSWMNWMKQRPGKALEWIGRIYPGDGDTNYSGEFKVKATLTADKSSSTAYMQLSSLTSEDSAVYFCAREGSYYSNPWYFDYWGQGTTLTVSS VL: DVLVTQTPLSLPVSLGDQASISCRSSQSIVQSNGDTYLEWYLQKPGQSPKLLIYKVSNRFSGVPDRFSGSGSGTDFTLKISRVEAEDLGVYYCFQGSHVPFTFGSGTKLEIKR What is its recorded Maximum mean fluorescence intensity?
31500
